# Lookup of reported self-cleavage keyed by entry
B1: Osa-1-4 twister ribozyme (parent)
chain: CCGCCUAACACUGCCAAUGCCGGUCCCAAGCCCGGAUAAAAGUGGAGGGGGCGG

# Variants of: B1
# assay.comment: self-cleavage, relative activity (ratio to wild type); higher = more cleavage; co-transcriptional
Form: value (number only, do not type unit).

• CCGCCUAGCACUGCCAAUGCCGGUCCCAAGCCCGGAUAAAAGUGGAGGGGGCAG [A8G G53A] = 0.16
• CCGCCUAACACUGCCAAUGCCGGUCCCAAACCCGGAUAAAAGUGGAGGGGGCAG [G30A G53A] = 0.03
• CCGCCUAACACUGCCAAUGCCGGUCCCAAGUCCGGAUAAAAGUGGAGGGGCCGG [C31U G51C] = 0.06
• CCGCCUAACACUGCAAAUGCCGGUCCCAAGCGCGGAUAAAAGUGGAGGGGGCGG [C15A C32G] = 0.07
• CCGCCUAACACUGCCAUUGCCGGUCCCAAGCCCGGAUAAAAGUGGAGGAGGCGG [A17U G49A] = 0.25
• CCGCCUAACACUUCCAAUGCCGGUCCCAAGCCCGGAUAAAAGUGGAGGGGCCGG [G13U G51C] = 0.01

Next variant, please.
**Query** State the recorded self-cleavage for this entry: CCGCCUAACACUGCCAAUGCCGGUCCCAAGCCCGGAUAAAAGUGGAGGAGGCGA [G49A G54A]
**Result** 0.15
